Please provide measured ADCC reporter cyCCR8 Max Fold Induction for the entries that follow.
experimental system: cynomolgus CCR8 (cynomolgus monkey, UniProt G7NYJ2 1-355)
Sequence (G7NYJ2 entry or part of it): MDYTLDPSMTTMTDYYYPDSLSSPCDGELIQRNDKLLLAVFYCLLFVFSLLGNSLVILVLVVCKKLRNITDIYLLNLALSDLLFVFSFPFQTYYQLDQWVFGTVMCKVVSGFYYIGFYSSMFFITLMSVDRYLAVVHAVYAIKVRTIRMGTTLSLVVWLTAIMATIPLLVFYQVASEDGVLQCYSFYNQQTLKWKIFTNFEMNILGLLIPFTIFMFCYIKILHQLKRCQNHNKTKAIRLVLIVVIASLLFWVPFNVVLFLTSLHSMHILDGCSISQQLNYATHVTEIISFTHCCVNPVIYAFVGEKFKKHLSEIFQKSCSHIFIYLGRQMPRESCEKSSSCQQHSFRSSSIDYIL
test details: cell-based or functional assay
Entry rule: numbers only, all in fold.

ADCC reporter cyCCR8 Max Fold Induction reported for this binder AC-264700 (antibody, V domains shown) VH: EVQLVESGGGLVQPGGSLKLSCAASGFIFSNAVMYWVRQASGKGLEWVARIKTKFNNYATYYADSVKGRFTISRDDSKNMVYLQMNSLKTEDTAVYYCTAGDRNKPFAYWGQGTLVTVSS VL: ETVVTQSPATLSLSPGERATLSCRASDSVITLLHWFQQKPGQAPRLLIHGASNLESRVPARFSGSGSGTDFTLTISSLEPEDFATYFCQQSWNDPYTFGQGTKLEIKR : 12

ADCC reporter cyCCR8 Max Fold Induction in this record for AC-277357 (fucosylated) (antibody, human IgG1, kappa, V domains shown, AC-264700 with LCDR1 D27→T. Human IgG1 kappa) VH: EVQLVESGGGLVQPGGSLKLSCAASGFIFSNAVMYWVRQASGKGLEWVARIKTKFNNYATYYADAVKGRFTISRDDSKNMVYLQMNSLKTEDTAVYYCTAGDRNKPFAYWGQGTLVTVSS VL: ETVVTQSPATLSLSPGERATLSCRASTSVITLLHWFQQKPGQAPRLLIHGASNLESRVPARFSGSGSGTDFTLTISSLEPEDFATYFCQQSWNDPYTFGQGTKLEIKR : 12.3

The reported value for AC-277483 (antibody, V domains shown) VH: EVQLVESGGGLVQPGGSLKLSCAASGFIFSNAVMYWVRQASGKGLEWVARIKTKFNNYATYYADAVKGRFTISRDDSKNMVYLQMNSLKTEDTAVYYCTAGDRNKPFAYWGQGTLVTVSS VL: ETVVTQSPATLSLSPGERATLSCRASDAVITLLHWFQQKPGQAPRLLIHGASNLESRVPARFSGSGSGTDFTLTISSLEPEDFATYFCQQSWNDPYTFGQGTKLEIKR in terms of ADCC reporter cyCCR8 Max Fold Induction is 10

The reported ADCC reporter cyCCR8 Max Fold Induction of the binder AC-277371 (antibody, V domains shown) VH: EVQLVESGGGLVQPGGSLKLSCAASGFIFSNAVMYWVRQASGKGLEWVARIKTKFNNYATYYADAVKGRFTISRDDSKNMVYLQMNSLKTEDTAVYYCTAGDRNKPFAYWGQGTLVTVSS VL: ETVVTQSPATLSLSPGERATLSCRASGSVITLLHWFQQKPGQAPRLLIHGASNLESRVPARFSGSGSGTDFTLTISSLEPEDFATYFCQQSWNDPYTFGQGTKLEIKR was 11.7
